All values here come from BindingDB's records for doi:10.1016/j.ejphar.2003.10.004.

# assayTarget: 5-hydroxytryptamine receptor 7 (Homo sapiens, UniProt P34969)
# Sequence (P34969 whole entry): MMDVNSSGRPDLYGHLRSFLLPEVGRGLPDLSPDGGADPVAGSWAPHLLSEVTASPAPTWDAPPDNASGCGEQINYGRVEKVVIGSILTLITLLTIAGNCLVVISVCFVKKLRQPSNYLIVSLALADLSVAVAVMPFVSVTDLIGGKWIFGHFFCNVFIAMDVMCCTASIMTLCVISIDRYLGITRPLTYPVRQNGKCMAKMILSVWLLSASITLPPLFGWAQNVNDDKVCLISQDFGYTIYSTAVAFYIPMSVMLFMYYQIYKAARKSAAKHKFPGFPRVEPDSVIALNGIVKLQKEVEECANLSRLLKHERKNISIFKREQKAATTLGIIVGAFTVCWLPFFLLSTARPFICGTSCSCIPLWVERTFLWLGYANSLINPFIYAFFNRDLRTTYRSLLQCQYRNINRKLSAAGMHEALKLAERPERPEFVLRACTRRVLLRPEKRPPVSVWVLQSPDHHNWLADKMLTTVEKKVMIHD
reportedEndpoint: Ki
Record the result as number plus unit.

Please report the recorded Ki for CCc1cc2c(ccc3cnn(CC(C)N)c32)o1 (stereo unspecified) . 177 nM

====

# assayTarget: UniProtKB Q8MI13
# Sequence (Q8MI13 whole entry): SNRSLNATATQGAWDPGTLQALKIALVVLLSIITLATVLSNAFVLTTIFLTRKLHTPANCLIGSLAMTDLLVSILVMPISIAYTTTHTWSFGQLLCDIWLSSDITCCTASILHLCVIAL
reportedEndpoint: Ki (nM)
Use nM as the unit, but write only the number.

Missing value: Ki, UniProtKB Q8MI13, entry CCc1cc2c(ccc3cnn(CC(C)N)c32)o1 (stereo unspecified) . Fill in? 481

====

The following molecules each carry a recorded Ki for 5-hydroxytryptamine receptor 2A (Homo sapiens, UniProt P28223).
Use µM as the unit, but write only the number.

CC(N)Cn1ccc2cc(F)c(Cl)cc21 (configuration not stated) [NSC_3045226] ... 0.024

Missing value: Ki, 5-hydroxytryptamine receptor 2A (Homo sapiens, UniProt P28223), entry CCc1cc2c(ccc3cnn(CC(C)N)c32)o1 (configuration not stated) [CAS_3045225] . Fill in? 0.013
